measuredParameter: melting point

CCc1ccc(Nc2cc(=O)[nH]cc2C(=O)NCCCO)c(F)c1 [Example 16]    231 to 233 °C
Cc1ccc(Nc2cc(=O)n(C)cc2C(N)=O)c(F)c1 [Example 37]    285 to 288 °C

Item: Cc1ccc(Nc2cc(=O)n(C)cc2C(=O)NOCCO)c(F)c1 [Example 35] | melting point: 110 to 115 °C

Item: Cn1cc(C(=O)NCCCO)c(Nc2ccc(Br)cc2F)cc1=O [Example 39] | melting point: 167 to 170 °C

Item: Cn1cc(C(N)=O)c(Nc2ccc(CCCO)cc2F)cc1=O [Example 21] | melting point: 214 to 216 °C

Item: Cn1cc(C(=O)NC(CO)CO)c(Nc2ccc(I)cc2F)cc1=O [Example 46] | melting point: 93 to 98 °C

Item: Cn1cc(C(=O)NCCO)c(Nc2ccc(I)cc2F)cc1=O [Example 4] | melting point: 205 to 208 °C

Item: O=C(NCCCO)c1cn(CCO)c(=O)cc1Nc1ccc(I)cc1F [Example 23] | melting point: 174 to 176 °C

Item: Cn1cc(C(=O)O)c(Nc2ccc(Cl)c(Cl)c2Cl)cc1=O [Example 65] | melting point: 258 to 261 °C

Item: CCc1ccc(Nc2cc(=O)n(C)cc2C(N)=O)c(F)c1 [Example 18] | melting point: 268 to 272 °C

Item: C#Cc1ccc(Nc2cc(=O)[nH]cc2C(=O)NCCCO)c(F)c1 [Example 15] | melting point: 249 to 252 °C

Item: CCCn1cc(C(N)=O)c(Nc2ccc(I)cc2F)cc1=O [Example 28] | melting point: 218 to 220 °C
